Entries and their Resins, oil composition of extracted bitumen
- measurement notes: SARA analysis of bitumen samples extracted from oil sands by each solvent
- Type: physicochemical
- test conditions: bitumen extracted at 30 C
Field: numeric (Normalized Weight Percent). Do not append units.

{"compound": "Cc1ccccc1C [o-Xylene, o-xylene]", "measured number": 22.28}
{"compound": "C1CCOC1 [Tetrahydrofuran, tetrahydrofuran]", "measured number": 24.38}
{"compound": "S=C=S [Carbon Disulfide, carbon disulfide]", "measured number": 25.49}

Field: next compound
# Resins, oil composition of extracted bitumen lookup, item CSC [Dimethyl Sulfide, dimethyl sulfide]
24.25

* * *

- measurement notes: SARA analysis of bitumen samples extracted from oil sands by each solvent
- Assay type: physicochemical
- test conditions: bitumen extracted at 30 C
measure name: Asphaltenes, oil composition of extracted bitumen

{"compound": "C1CCOC1 [Tetrahydrofuran, tetrahydrofuran]", "result": "14.27 Normalized Weight Percent"}
{"compound": "Cc1ccccc1C", "result": "13.96 Normalized Weight Percent"}
{"compound": "S=C=S [Carbon Disulfide, carbon disulfide]", "result": "13.85 Normalized Weight Percent"}

Field: next compound
# Asphaltenes, oil composition of extracted bitumen lookup, item CSC [Dimethyl Sulfide, dimethyl sulfide]
13.19 Normalized Weight Percent

Source of measurements: patent US20140360727A1
